Listing of recorded max activity by entry.
- Assay protocol: inhibitors of Toxoplasma growth in IFN-γ-primed HeLa – cell-based, ME49Luc, luciferase, 72 h, dose response (AID 1259418)
- Condition description: T. gondii ME49Luc in IFN-y HeLa, stronger effect = lower value, -100% = high-dose IFN-γ control wells; at 19.5 µM unless noted
The campaign covered roughly 3,400 compounds. About 840 (25%) were called active. Roughly 11% stayed inconclusive and do not appear here. A selection follows. Entries with a potency or affinity are not part of this list.
Property name: max activity

>>> result("Cc1ccc(-c2coc(-c3ccc(NC(=O)Cc4ccccc4C)cc3)n2)cc1")
"19% (inactive)"
>>> result("O=C(Nc1ccccc1F)N1CCCCN2[C@H](C1)[C@H](c1ccc(/C=C/c3ccccc3)cc1)[C@@H]2CO")
"35.7% [at 10 µM] (inactive)"
>>> result("COc1ccccc1-c1nc(Cn2nnc(-c3nc(-c4cccnc4)no3)c2C)c(C)o1")
"10.3% [at 0.16 µM] (inactive)"
>>> result("Cc1oc(-c2cccc(Cl)c2)nc1CN1CCN(C(=O)Nc2ccccc2)CC1")
"-19.4% (inactive)"
>>> result("Cn1nccc1C(=O)N1CCC2(CC1)Nc1cc(F)ccc1-n1cccc12")
"-9.01% (inactive)"
>>> result("COc1ccc(NC(=O)N2CCCCN3[C@@H](CO)[C@H](c4ccc(-c5ccccc5F)cc4)[C@@H]3C2)cc1")
"20.7% [at 5 µM] (inactive)"
>>> result("COc1ccccc1NC(=O)Nc1ccc(-c2nc(-c3cccc(Br)c3)co2)cc1")
"8.23% (inactive)"
>>> result("COc1ccc(-c2nc(N3CCN(c4ccc(C)cc4C)CC3)c3ccccc3n2)cc1")
"-12.6% [at 0.16 µM] (inactive)"
>>> result("COc1ccccc1CNC(=O)CC1N=C2c3ccccc3N=C(SCC#N)N2C1=O (centres undefined)")
"42.4% [at 10 µM] (inactive)"

====

- Assay protocol: inhibitors of Toxoplasma growth in IFN-γ-primed HeLa – cell-based, ME49Luc, luciferase, 72 h, dose response (AID 1259418)
- Condition description: T. gondii ME49Luc in IFN-y HeLa, stronger effect = lower value, -100% = high-dose IFN-γ control wells; at 19.5 µM unless noted
The campaign covered roughly 3,400 compounds. About 840 (25%) were called active. Inconclusive results (about 11%) are left out. A selection follows. Results with a measured potency or affinity are listed apart.
Property name: max activity

>>> result("COc1ccc(OC)c(NC(=O)COc2nc(C)nc3ccccc23)c1")
"27.6% [at 2.6 µM] (inactive)"
>>> result("Cc1cc(C)cc(NC(=O)COc2nc(C)nc3ccccc23)c1")
"-16.7% [at 5 µM] (inactive)"
>>> result("COc1ccc(C)cc1NC(=O)COc1nc(C)nc2ccccc12")
"17.5% [at 0.68 µM] (inactive)"
>>> result("Cc1nc(OCC(=O)Nc2cccc(Br)c2)c2ccccc2n1")
"18% [at 0.35 µM] (inactive)"
>>> result("CN(C)C(=O)CN1CCOCC2(CCN(CC3CCOC3)CC2)C1 (stereo unspecified)")
"23.8% (inactive)"
>>> result("Cc1ccc(CSc2ccc(-c3sc(-c4ccc(F)cc4)nc3C)nn2)cc1")
"12.3% [at 0.16 µM] (inactive)"
>>> result("COc1ccc(-c2nc(Cn3nnc(-c4nc(-c5ccccc5Cl)no4)c3C)c(C)o2)cc1")
"-7.3% [at 1.35 µM] (inactive)"
>>> result("CSc1ccc(-c2noc(-c3nnn(Cc4nc(-c5ccc(C)cc5)oc4C)c3C)n2)cc1")
"4.87% (inactive)"
>>> result("Cc1cc(C)c(NC(=O)COc2nc(C)nc3ccccc23)c(C)c1")
"-16.7% [at 0.68 µM] (inactive)"
>>> result("CCc1onc(C)c1C1CCCN1Cc1cn(C)c2ccc(OC)cc12 (stereo unspecified)")
"9.05% [at 0.68 µM] (inactive)"
>>> result("O=C(NCCc1c[nH]c2ccccc12)c1cc(-c2ccccn2)nc2ccccc12")
"15.3% [at 0.68 µM] (inactive)"

====

- Assay protocol: inhibitors of Toxoplasma growth in IFN-γ-primed HeLa – cell-based, ME49Luc, luciferase, 72 h, dose response (AID 1259418)
- Condition description: T. gondii ME49Luc in IFN-y HeLa, stronger effect = lower value, -100% = high-dose IFN-γ control wells; at 19.5 µM unless noted
Hit rate of the full screen: of about 3,400 compounds, about 840 (25%) were called active. Roughly 11% stayed inconclusive and do not appear here. The list is a sample of the results. Results with a measured potency or affinity are listed apart.
Property name: max activity

>>> result("COc1ccc(C2=NC3(CCN(CC(=O)Nc4cccc(Cl)c4)CC3)NC2=O)cc1")
"-14.8% [at 2.6 µM] (inactive)"
>>> result("CSc1cccc(NC(=O)CN2CCC3(CC2)N=C(c2ccc(Cl)cc2)C(=O)N3)c1")
"-30.9% (inactive)"
>>> result("Cc1ccc(C2=NC3(CCN(CC(=O)Nc4ccc(Cl)cc4)CC3)NC2=O)cc1")
"19.9% [at 1.35 µM] (inactive)"
>>> result("COc1ccc(CC(=O)N2CCC3(CC2)Nc2ccc(C)c(C)c2-n2cccc23)cc1OC")
"11.1% [at 0.68 µM] (inactive)"
>>> result("COc1cccc(NC(=O)CN2CCC3(CC2)N=C(c2cccc(Cl)c2)C(=O)N3)c1")
"-20.4% [at 0.68 µM] (inactive)"
>>> result("Cc1ccc(-c2nc(Cn3nnc(-c4nc(-c5ccc(Cl)cc5)no4)c3C)c(C)o2)cc1")
"-14.4% [at 0.68 µM] (inactive)"
>>> result("Cc1ccc(N(Cc2nc(-c3cccc(C)c3)oc2C)S(=O)(=O)c2cccs2)cc1")
"-8.42% [at 0.16 µM] (inactive)"
>>> result("Cc1ccccc1NC(=O)CN1CCC2(CC1)N=C(c1cccc(Cl)c1)C(=O)N2")
"-14.5% (inactive)"
>>> result("CCOc1ccc(N(Cc2nc(-c3cccc(Cl)c3)oc2C)S(=O)(=O)c2cccs2)cc1")
"19.9% (inactive)"

====

- Assay protocol: inhibitors of Toxoplasma growth in IFN-γ-primed HeLa – cell-based, ME49Luc, luciferase, 72 h, dose response (AID 1259418)
- Condition description: T. gondii ME49Luc in IFN-y HeLa, stronger effect = lower value, -100% = high-dose IFN-γ control wells; at 19.5 µM unless noted
The whole screen tested about 3,400 compounds, of which about 840 (25%) were called active. Another 11% or so got no clear call; they are omitted. Not all results are given here. Measured potencies and affinities stand elsewhere.
Property name: max activity

>>> result("CC(C)c1ccc(S(=O)(=O)N2CCC3(CC2)NCCN=C3NC2CCCCC2)cc1")
"20% [at 0.16 µM] (inactive)"
>>> result("COc1ccc(-c2nc(N3CCN(c4cccc(Cl)c4)CC3)c3ccccc3n2)cc1")
"-7.34% [at 10 µM] (inactive)"
>>> result("COc1cccc(-c2nc3c(s2)CN(S(=O)(=O)c2ccc(CC(C)C)cc2)CC3)c1")
"8.23% [at 2.6 µM] (inactive)"
>>> result("CCC(C)Nc1nc(-c2ccc(Cl)cc2)nc2ccccc12 (stereo not given)")
"-11.3% [at 10 µM] (inactive)"
>>> result("COc1ccc(N2CCN(c3nc(-c4ccc(Cl)cc4)nc4ccccc34)CC2)cc1")
"25.6% (inactive)"
>>> result("Cc1csc([C@H]2C[C@H]3CCN(C(=O)c4cnccn4)C[C@@H]3O2)n1")
"48.1% (inactive)"
>>> result("CC(C)c1ccc(S(=O)(=O)N2CCC3(CC2)NCCN=C3NC2CCCC2)cc1")
"-14.4% [at 10 µM] (inactive)"
>>> result("Cc1ccccc1CC(=O)N1CCC2(CC1)Nc1cc(F)ccc1-n1cccc12")
"10.3% [at 0.68 µM] (inactive)"
>>> result("N#C[C@H]1[C@@H](c2ccc(-c3cccc(F)c3)cc2)[C@@H](CO)N1C(=O)NC1CCCC1")
"14.8% [at 2.6 µM] (inactive)"
>>> result("CCc1nc(OCC(=O)Nc2ccccc2Cl)c2ccccc2n1")
"-7.29% [at 1.35 µM] (inactive)"
>>> result("Cc1cccc(-c2nc(Cn3nnc(-c4nc(-c5ccccc5Cl)no4)c3C)c(C)o2)c1")
"15.3% [at 10 µM] (inactive)"
>>> result("CCOC(=O)CSc1nc(NCCc2ccc(OC)c(OC)c2)c2ccccc2n1")
"24.2% [at 0.68 µM] (inactive)"
>>> result("N#C[C@@H]1[C@@H](c2ccc(-c3cccc(F)c3)cc2)[C@H](CO)N1C(=O)NC1CCCC1")
"20.3% [at 10 µM] (inactive)"
>>> result("Cc1ccc(-c2nc(Cn3nnc(-c4nc(-c5cccc(C(F)(F)F)c5)no4)c3C)c(C)o2)cc1")
"13.1% (inactive)"
>>> result("CC(C)c1ccc(-c2nc3c([nH]2)c(=O)n(C)c(=O)n3C)cc1")
"36.8% (inactive)"
>>> result("COc1cccc(CNC(=O)N2CCc3nc(-c4ccccc4)sc3C2)c1")
"-15% [at 5 µM] (inactive)"
>>> result("O=C(CC1Nc2c3ccccc3nc(=S)n2C1=O)NCCC1=CCCCC1 (stereo not given)")
"25.3% [at 0.68 µM] (inactive)"
>>> result("O=C(Cn1c(=O)c(S(=O)(=O)c2ccccc2)cc2ccccc21)NCc1ccccc1")
"-8.55% [at 2.6 µM] (inactive)"
>>> result("O=C(NCCCN1CCC(N2CCCCC2)CC1)c1nnc2ccc(-c3ccccc3)nn12")
"16.2% [at 0.16 µM] (inactive)"
>>> result("O=C(Nc1ccc(-c2nc(-c3ccccc3)co2)cc1)Nc1ccc(Br)cc1F")
"58.9% [at 10 µM] (inactive)"
